For each entry below, report its pKi value.
Biological target: human histamine H4 receptor (Homo sapiens)
Construct: expressed in transfected cells; host or cells: SK-N-MC cells or COS7 cells, transient transfection with pH4R; cell membranes
Sequence (Q9H3N8 whole entry): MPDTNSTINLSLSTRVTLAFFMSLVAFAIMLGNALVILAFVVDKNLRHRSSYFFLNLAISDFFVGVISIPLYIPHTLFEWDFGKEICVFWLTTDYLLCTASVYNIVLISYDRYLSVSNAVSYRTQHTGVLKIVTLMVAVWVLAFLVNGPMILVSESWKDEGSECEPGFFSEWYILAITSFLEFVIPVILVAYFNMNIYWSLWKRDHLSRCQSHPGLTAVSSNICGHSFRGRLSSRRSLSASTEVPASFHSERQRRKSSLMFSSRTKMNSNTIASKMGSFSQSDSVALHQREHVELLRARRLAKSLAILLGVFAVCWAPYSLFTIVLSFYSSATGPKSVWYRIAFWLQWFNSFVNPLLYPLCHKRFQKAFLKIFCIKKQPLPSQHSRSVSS
Assay: Binding Assay on Recombinant Human Histamine H4 Receptor
Conditions: competition binding with 3H-histamine (5 nM; KD 5 nM), membranes of SK-N-MC or COS7 cells expressing human H4 receptor; average of results; > = highest value tested
Method: Biological Methods: Binding Assay on Recombinant Human Histamine H4 Receptor SK-N-MC cells or COS7 cells were transiently transfected with pH4R and grown in 150 cm^2 tissue culture dishes. Cells were washed with saline solution, scraped with a cell scraper and collected by centrifugation (1000 rpm, 5 min). […] Filters were then dried, mixed with scintillant and counted for radioactivity. […]
Answers are plain numbers, as −log10 of the molar value.

Cc1cccc2[nH]c(-c3ccc4c(c3)ncn4CCCCC3CCN(C)CC3)nc12 :: 5.70
Cc1c(F)ccc2[nH]c(-c3ccc4ncn(CCCC5CCN(C)CC5)c4c3)nc12 :: 6.40
Cc1ccc2[nH]c(-c3ccc4c(ncn4CCCC4CCN(C)CC4)c3C)nc2c1C :: 7.48
Cc1c(F)ccc2[nH]c(-c3ccc4c(c3)c(Cl)cn4CCCC3CCNCC3)nc12 :: 5.74

Working through the 4 molecules below one at a time, give pKi for each.
1. Cc1ccc2[nH]c(-c3cnc4c(ccn4CCCC4CCN(C)CC4)c3)nc2c1C
2. CN1CCC(CCCCn2ccc3c(-c4nc5cc(F)c(F)cc5[nH]4)cccc32)CC1
3. Cc1c(F)ccc2[nH]c(-c3ccc4c(c3)ncn4CCCC3CCN(C)CC3)nc12
4. Fc1cc2nc(-c3cccc4c3c(Cl)cn4CCCCC3CCNCC3)[nH]c2cc1F

Response given:
1: 7.25; 2: 6.74; 3: 7.19; 4: 5.48

###

Molecular target: human histamine H4 receptor (Homo sapiens)
Construct: cell membranes
Assay: Binding Assay on Recombinant Human Histamine H4 Receptor
Details: competition binding with 3H-histamine (5 nM; KD 5 nM), membranes of SK-N-MC or COS7 cells expressing human H4 receptor; average of results; > = highest value tested
readout.name: Ki (nM)
Numbers only, in nM.

Cc1cc(C)c2nc(-c3ccc4c(ccn4CCCC4CCN(C)CC4)c3Cl)[nH]c2c1 :: 14

For every item below, please supply its Ki.
1. Cc1ccc2[nH]c(-c3ccc4c(c3)ncn4CCCCC3CCNCC3)nc2c1C
2. Cc1c(F)ccc2[nH]c(-c3cc4ccn(CCCC5CCNCC5)c4cc3Cl)nc12
3. Clc1cccc2[nH]c(-c3cccc4c3ccn4CCCCC3CCNCC3)nc12
4. Cc1ccc2[nH]c(-c3ccc4c(c3)ncn4CCCCC3CCN(C)CC3)nc2c1C
5. CC(C)(C)c1ccc2[nH]c(-c3ccc4c(c3)c(Cl)cn4CCCC3CCNCC3)nc2c1
6. Cc1c(C)n(CCCC2CCNCC2)c2ccc(-c3nc4c(C)c(F)ccc4[nH]3)cc12
7. Cc1c(F)ccc2[nH]c(-c3cccc4c3c(Cl)cn4CCCCC3CCN(C)CC3)nc12

Response given:
1. 3000
2. 1730
3. 2330
4. 3000
5. 2000
6. 2000
7. 118

Provide Ki values for the following items, in order.
1. Cc1ccc2[nH]c(-c3ccc4c(c3C)CCN4CCCC3CCN(C)CC3)nc2c1C
2. CN1CCC(CCCCn2ccc3c(-c4nc5cc6c(cc5[nH]4)OCO6)cccc32)CC1
3. Cc1c(F)ccc2[nH]c(-c3ccc4c(c3Cl)CCN4CCCC3CCN(C)CC3)nc12

Response given:
1: 15; 2: 404; 3: 34

Please go through the list and note Ki for each compound.
1. Cc1c(-c2nc3cc(Cl)ccc3[nH]2)ccc2c1ccn2CCCC1CCN(C)CC1
2. CN1CCC(CCCCn2ccc3c(-c4nc5cc6ccccc6cc5[nH]4)cccc32)CC1
3. Cc1c(F)ccc2[nH]c(-c3ccc4c(ncn4CCCC4CCN(C)CC4)c3C)nc12
4. CN1CCC(CCCCn2cc(Cl)c3c(-c4nc5c(F)c(F)ccc5[nH]4)cccc32)CC1

Response given:
[19, 187, 7, 1000]

Reference for the values: patent US8084466B2
